- Tested on: UO-31
- protocol-summary: NCI tumour cell line growth inhibition, 48 h
Calls of active or inactive are those of the source. No stated cut-off is given here; in the data, active = GI50 up to about 1.1 µM and inactive = higher.
property: GI50

> print(dat)
                                   molecule       measured.value
1  O=c1c2ccccc2nc(-c2ccccc2Cl)n1NC1OC(CO)C(O)C(O)C1O (stereo not given)  > 100 µM (inactive)
2  CCOC(=O)CN1C(=O)NC(C)(c2ccccc2)C1=O (stereo not given)  > 100 µM (inactive)
3  Cc1cc(C)c(C(=O)O)c(SSc2cc(C)cc(C)c2C(=O)O)c1  > 100 µM (inactive)
4  COC(=O)CCC(=O)c1ccc2c(c1)CC1(Cc3ccccc3C1)C2   42.9 µM (inactive)
5  CCOC(=O)c1sc(N/N=C2\NC(=O)/C(=C/c3ccc([N+](=O)[O-])cc3)S2)nc1C   16.2 µM (inactive)

###

- Tested on: IGROV-1
- protocol-summary: NCI tumour cell line growth inhibition, 48 h
Active and inactive are the calls of the source. Cut-off read from the data, not from the text of the source: active = GI50 up to about 1.1 µM and inactive = higher.
property: GI50

> print(dat)
                                    compound  subject.of.test       measured.value
 1           Cn1cnc([N+](=O)[O-])c1Sc1nnnn1C          IGROV-1   19.5 µM (inactive)
 2  CC1CCC/C1=C(/I)C(=O)c1ccccc1 (stereo unspecified)          IGROV-1  > 100 µM (inactive)
 3  Cc1cc2occ(S(=O)(=O)NC(=O)Nc3ccc(Cl)cc3)c(=O)c2c(=O)o1          IGROV-1  > 100 µM (inactive)
 4  COc1ccc(C2COc3cc(O)c(O)cc3C2)cc1 (stereo unspecified)          IGROV-1   16.7 µM (inactive)
 5  O=c1[nH]c(=O)n(C2CC(O)C(CO)O2)cc1OS(=O)(=O)C(F)(F)F (stereo unspecified)          IGROV-1  > 100 µM (inactive)
 6    C=CCc1cccc2cc(C(=O)Nc3ccccc3)c(=N)oc12          IGROV-1   33.2 µM (inactive)
 7  C/C(=C\CCC1=CC(=O)OC1)CC[C@@H]1[C@H]2C(=O)CC(C)[C@@]3(C)CC[C@]1(C)[C@@]23C (stereo partly specified)          IGROV-1   > 10 µM (inactive)
 8  COC(=O)C1=CON2C3CC4CC(C3)CC(C4)C12C (stereo unspecified)          IGROV-1  > 100 µM (inactive)
 9  CSc1c(C#N)c(O)n(-c2ccc(Cl)cc2)c(=O)c1C#N          IGROV-1  > 100 µM (inactive)
10       COCCOCCOC1=CC(=O)c2c(O)ccc(O)c2C1=O          IGROV-1   1.82 µM (inactive)
11  Cn1c2ccccc2c2ccc3c(c21)C(=O)c1ccc2c4ccccc4n(C)c2c1C3=O          IGROV-1  > 100 µM (inactive)

###

- Tested on: DU-145
- protocol-summary: NCI tumour cell line growth inhibition, 48 h
Active and inactive are the calls of the source. Rule as the data show it: active = GI50 up to about 1.1 µM and inactive = higher. Residues, ends and D or L forms follow the SMILES beside them.
# GI50 annotations
property: GI50

> print(dat)
                                   molecule       measured.value
1     CCNC(=S)N/N=C/c1cc([N+](=O)[O-])ccc1O   83.4 µM (inactive)
2  Cc1cc2occ(S(=O)(=O)NC(=O)Nc3ccc(Cl)cc3)c(=O)c2c(=O)o1  > 100 µM (inactive)
3  CC(=O)NC(CO)C(=O)NC(Cc1ccc(O)cc1)C(=O)NCC(N)=O (stereo not drawn) (Ac-Ser-Tyr-Gly-NH2; configuration not given here)  > 100 µM (inactive)

###

- Tested on: TK-10
- protocol-summary: NCI tumour cell line growth inhibition, 48 h
Calls of active or inactive are those of the source. Rule as the data show it: active = GI50 up to about 1.1 µM and inactive = higher. Residues, ends and D or L forms follow the SMILES beside them.
property: GI50

> print(dat)
                                    compound       measured.value
 1  COc1cc(/C=C2\C(=O)N(c3ccc(NC(C)=O)cc3)C(c3ccccc3)S2(=O)=O)cc(OC)c1OC (stereo unspecified)  > 100 µM (inactive)
 2  O=C(O)CCC(/N=C(\C(=N\C(CCC(=O)O)C(=O)O)c1ccccc1)c1ccccc1)C(=O)O (stereo unspecified)  > 100 µM (inactive)
 3  CC(C)=C=CC(C)(C)NS(=O)(=O)NC(C)(C)C=C=C(C)C  > 100 µM (inactive)
 4      CCCCC1=C(C(=O)N2CCOCC2)C2(OCCO2)C1=O   33.3 µM (inactive)
 5  O=C(O)c1cccc(CC(Br)C(=O)O)c1 (stereo unspecified)  > 100 µM (inactive)
 6  Cc1c2ccnc(C(N)=O)c2c(C)c2c1[nH]c1ccccc12   5.55 µM (inactive)
 7  C=CCc1ccc(O)c(-c2cc(C3Oc4c(-c5cc(CC=C)ccc5O)cc(O)cc4[C@@H]3CO)ccc2O)c1 (stereo partly specified)   66.1 µM (inactive)
 8  CC(=O)NC(CO)C(=O)NC(Cc1ccc(O)cc1)C(=O)NCC(N)=O (stereo not drawn) (Ac-Ser-Tyr-Gly-NH2; configuration not given here)  > 100 µM (inactive)
 9  O=C(CCc1ccc(O)cc1)c1c(O)cc(O)cc1OC1OC(CO)C(O)C(O)C1O (stereo unspecified)  > 100 µM (inactive)
10  COC(=O)C1CC(=O)CCC1c1ccccc1 (stereo unspecified)  > 100 µM (inactive)
11       Cc1c2ncccc2c(C)c2c1[nH]c1ccc(O)cc12   12.8 µM (inactive)
12       CN(C)CCCNc1c2c(nc3ccc(Cl)cc13)CCCC2   15.2 µM (inactive)
13  OC12CCC3(OC4CCCCO4)c4ccccc4C3C1c1ccccc12 (stereo unspecified)  > 100 µM (inactive)
14  COc1ccc(C(=O)C(c2ccc(OC)cc2)C2(O)C(=O)Nc3c(C)cc(Cl)cc32)cc1 (stereo unspecified)  > 100 µM (inactive)
15  CC1(C)CC(=O)c2c(nc3c(ccc4ccccc43)c2-c2ccc(NC(=O)CCCCC(=O)Nc3ccc(-c4c5c(nc6c4ccc4ccccc46)CC(C)(C)CC5=O)cc3)cc2)C1   48.6 µM (inactive)
16              O=c1c2ccccc2nc(-c2ccccc2)n1O  > 100 µM (inactive)
17  CCCNC(=O)C(C)(Cl)C(=O)c1ccccc1O (stereo unspecified)  > 100 µM (inactive)
18  CC1COS(=O)N1c1ccccc1 (stereo unspecified)  > 100 µM (inactive)
19  CCC/C(Cl)=N\OC(=O)Nc1ccc(F)c([N+](=O)[O-])c1     17 µM (inactive)
20  COc1c(OC(C)=O)c(OC(C)=O)cc2c1-c1ccc(OC)c(=O)cc1C(NC(C)=O)CC2 (stereo unspecified)    2.7 µM (inactive)
21  CC1=NN(c2nc(N)nc(/C(C#N)=C/c3ccc([N+](=O)[O-])o3)n2)C(C)(C)C1      2 µM (inactive)

###

- Tested on: SNB-78
- protocol-summary: NCI tumour cell line growth inhibition, 48 h
Activity calls are given as the source filed them. Rule as the data show it: active = GI50 up to about 1.1 µM and inactive = higher.
property: GI50

> print(dat)
                                    molecule       measured.value
 1  COC(=O)C1CC(=O)CCC1c1ccccc1 (stereo unspecified)  > 100 µM (inactive)
 2        NCCc1ccc2oc3cc(=O)c4ccccc4c-3nc2c1   9.35 µM (inactive)
 3  COc1ccccc1NC(=O)C1=C(C)NC(C)=C(C(=O)Nc2ccccc2OC)C1c1ccc([N+](=O)[O-])cc1  > 100 µM (inactive)
 4  C=CCC1C(=O)CC2(C)CC(=O)C(CC=C)C12C (stereo unspecified)  > 100 µM (inactive)
 5                CCOC(=O)C1=C(C)Nc2ccccc2S1  > 100 µM (inactive)
 6  O=[N+]([O-])c1cc(/C=N/NS(=O)(=O)c2ccc(F)cc2)c(O)c([N+](=O)[O-])c1   52.6 µM (inactive)
 7  NC1CCCCC1.O=P(O)(O)C(CSc1ccccc1)P(=O)(O)O  > 100 µM (inactive)
 8  Cc1c2ccnc(C(N)=O)c2c(C)c2c1[nH]c1ccccc12     14 µM (inactive)
 9  C[N+](C)(C)C1CC([N+](C)(C)C)C2c3ccccc3C21 (stereo unspecified)  > 100 µM (inactive)
10              CCOC(=O)COc1cccc2occc(=O)c12  > 100 µM (inactive)
11            c1ccc(SC(Sc2ccccc2)=C2CCC2)cc1  > 100 µM (inactive)

###

- Tested on: OVCAR-8
- protocol-summary: NCI tumour cell line growth inhibition, 48 h
The source made the active and inactive calls. No stated cut-off is given here; in the data, active = GI50 up to about 1.1 µM and inactive = higher.
# GI50 annotations
property: GI50

> print(dat)
                                   compound       measured.value
1  N#CCC(=O)N/N=C(/C(=O)Nc1ccccc1)C1C(=O)N(c2ccccc2)N=C1N (stereo not given)  > 100 µM (inactive)
2  COC(=O)C1(C(=O)OC)Cc2ccc(C)cc2C2=C1C(=O)c1ccccc1C2=O   13.3 µM (inactive)
3  O=C1CC2CCN(C(=O)c3ccccc3)CC2CCN1.O=C1CCC2CC(C(=O)c3ccccc3)CCC2CN1 (stereo not given)  > 100 µM (inactive)
4  C=CCC1C(=O)CC2(C)CC(=O)C(CC=C)C12C (stereo not given)  > 100 µM (inactive)
5  CC(=O)O[C@@H]1C2C(=O)OC(=O)C2C2CCC[C@]23O[C@H]13 (stereo not given in full)  > 100 µM (inactive)
